Tested on: Echinochloa oryzoides (Ard.) Fritsch.
Test: Preemergence weed control under flooded paddy conditions, ECHORC (Watergrass (Calif.)); for herbicidal effect rating, ECHORC: meaning of each grade not given here
Type: in vivo
Details: 0.0625 kg/ha; preemergence weeds, flooded paddy; rated three to four weeks after treatment
property: herbicidal effect rating, ECHORC

compound=CC(C)=NOC(=O)COc1ccc(C)cc1-c1nsc2ccc(-n3c(=O)cc(C(F)(F)F)n(C)c3=O)cc12 property="herbicidal effect rating, ECHORC" result=2.0
compound=CC(C)=CCOC(=O)COc1ccc(C)cc1-c1nsc2ccc(-n3c(=O)cc(C(F)(F)F)n(C)c3=O)cc12 property="herbicidal effect rating, ECHORC" result=2.0
compound=Cn1c(C(F)(F)F)cc(=O)n(-c2ccc3snc(COCC(F)F)c3c2)c1=O property="herbicidal effect rating, ECHORC" result=0.0
compound=Cc1ccc(OCC(=O)NS(C)(=O)=O)c(-c2nsc3ccc(-n4c(=O)cc(C(F)(F)F)n(C)c4=O)cc23)c1 property="herbicidal effect rating, ECHORC" result=7.0
compound="Cc1ccc(OC2CC(C)OC2=O)c(-c2nsc3ccc(-n4c(=O)cc(C(F)(F)F)n(C)c4=O)cc23)c1 (racemic)" property="herbicidal effect rating, ECHORC" result=0.0

====

System: Echinochloa oryzoides (Ard.) Fritsch.
Assay: Preemergence weed control under flooded paddy conditions, ECHORC (Watergrass (Calif.)); for herbicidal effect rating, ECHORC: meaning of each grade not given here
Format: in vivo
Settings: 0.0625 kg/ha; preemergence, flooded paddy; rated three to four weeks after treatment
Quick list: herbicidal effect rating, ECHORC per entry.
property: herbicidal effect rating, ECHORC

molecule=COc1noc2ccc(-n3c(=O)cc(C(F)(F)F)n(C)c3=O)cc12 testedtarget="Echinochloa oryzoides (Ard.) Fritsch." result=0.0
molecule=Cc1ccc(OCC(=O)OC2CCCC2)c(-c2nsc3ccc(-n4c(=O)cc(C(F)(F)F)n(C)c4=O)cc23)c1 testedtarget="Echinochloa oryzoides (Ard.) Fritsch." result=9.0
molecule=COC(=O)COc1c(C)cc(C)cc1-c1nsc2ccc(-n3c(=O)cc(C(F)(F)F)n(C)c3=O)cc12 testedtarget="Echinochloa oryzoides (Ard.) Fritsch." result=9.0
molecule=COc1cc(C)c(C)c(C)c1-c1nsc2ccc(-n3c(=O)cc(C(F)(F)F)n(C)c3=O)cc12 testedtarget="Echinochloa oryzoides (Ard.) Fritsch." result=2.5
molecule="CCc1ccc(OC(C)C(=O)OC)c(-c2nsc3ccc(-n4c(=O)cc(C(F)(F)F)n(C)c4=O)cc23)c1 (stereo not drawn)" testedtarget="Echinochloa oryzoides (Ard.) Fritsch." result=9.0
molecule=COc1cc(C)ccc1-c1nsc2ccc(-n3c(=O)cc(C(F)(F)F)n(C)c3=O)cc12 testedtarget="Echinochloa oryzoides (Ard.) Fritsch." result=9.0

====

Tested on: Oryza sativa, (L.) Tebonnet
Test: Rice tolerance to post-transplant applications under flooded paddy conditions (Example 187), ORYSAT (Rice, Tebonnet); for herbicidal effect rating ORYSAT: meaning of each grade not given here
Conditions: Rate 0.1250 kg/ha, rated three to four weeks after treatment
Quick list: herbicidal effect rating ORYSAT per entry.
property: herbicidal effect rating ORYSAT

molecule=Cn1c(C(F)(F)F)cc(=O)n(-c2cc3c(C(Br)Br)nsc3cc2F)c1=O testedtarget="Oryza sativa, (L.) Tebonnet" property="herbicidal effect rating ORYSAT" result=8.0
molecule=Cc1ccc(OCC(=O)NO)c(-c2nsc3ccc(-n4c(=O)cc(C(F)(F)F)n(C)c4=O)cc23)c1 testedtarget="Oryza sativa, (L.) Tebonnet" property="herbicidal effect rating ORYSAT" result=3.0
molecule=Cn1c(C(F)(F)F)cc(=O)n(-c2ccc3snc(C(C)(Br)Br)c3c2)c1=O testedtarget="Oryza sativa, (L.) Tebonnet" property="herbicidal effect rating ORYSAT" result=7.0
molecule="COC(=O)C(C)Oc1cccc(-c2nsc3ccc(-n4c(=O)cc(C(F)(F)F)n(C)c4=O)cc23)c1 (stereo not drawn)" testedtarget="Oryza sativa, (L.) Tebonnet" property="herbicidal effect rating ORYSAT" result=3.7
molecule=CCS(=O)(=O)NC(=O)c1nsc2ccc(-n3c(=O)cc(C(F)(F)F)n(C)c3=O)cc12 testedtarget="Oryza sativa, (L.) Tebonnet" property="herbicidal effect rating ORYSAT" result=6.0
molecule=CNC(=O)OCc1nsc2ccc(-n3c(=O)cc(C(F)(F)F)n(C)c3=O)cc12 testedtarget="Oryza sativa, (L.) Tebonnet" property="herbicidal effect rating ORYSAT" result=6.0
molecule=CCC(=O)COC(=O)COc1ccc(C)cc1-c1nsc2ccc(-n3c(=O)cc(C(F)(F)F)n(C)c3=O)cc12 testedtarget="Oryza sativa, (L.) Tebonnet" property="herbicidal effect rating ORYSAT" result=5.0
molecule=C=CCC(C#N)(CC=C)c1nsc2ccc(-n3c(=O)cc(C(F)(F)F)n(C)c3=O)cc12 testedtarget="Oryza sativa, (L.) Tebonnet" property="herbicidal effect rating ORYSAT" result=4.0
molecule=CC#CCOC(=O)c1nsc2ccc(-n3c(=O)cc(C(F)(F)F)n(C)c3=O)cc12 testedtarget="Oryza sativa, (L.) Tebonnet" property="herbicidal effect rating ORYSAT" result=7.0

====

Tested on: Oryza sativa, (L.) Tebonnet
Assay: Rice tolerance to post-transplant applications under flooded paddy conditions (Example 187), ORYSAT (Rice, Tebonnet); for herbicidal effect rating ORYSAT: meaning of each grade not given here
Conditions: Rate 0.2500 kg/ha, rated three to four weeks after treatment
property: herbicidal effect rating ORYSAT

compound=CCCCS(=O)(=O)NC(=O)COc1ccccc1-c1nsc2ccc(-n3c(=O)cc(C(F)(F)F)n(C)c3=O)cc12 testedtarget="Oryza sativa, (L.) Tebonnet" result=8.0
compound=Cn1c(C(F)(F)F)cc(=O)n(-c2ccc3snc(C(C#N)=Cc4ccc[nH]4)c3c2)c1=O testedtarget="Oryza sativa, (L.) Tebonnet" result=3.0
compound="C=CS(=O)(=O)NC(=O)C(C)Oc1ccc(C)cc1-c1nsc2ccc(-n3c(=O)cc(C(F)(F)F)n(C)c3=O)cc12 (stereo not shown)" testedtarget="Oryza sativa, (L.) Tebonnet" result=3.0
compound="Cc1ccc(OC(C)C(=O)NS(=O)(=O)C(C)C)c(-c2nsc3ccc(-n4c(=O)cc(C(F)(F)F)n(C)c4=O)cc23)c1 (stereo not shown)" testedtarget="Oryza sativa, (L.) Tebonnet" result=3.0

====

Test system: Cyperus iria
Assay: Preemergence weed control under flooded paddy conditions, CYPIR (Rice Flatsedge)
Type: in vivo
Settings: 0.0320 kg/ha; preemergence, flooded paddy; rated three to four weeks after treatment
property: CYPIR herbicidal rating

compound=Cn1c(C(F)(F)F)cc(=O)n(-c2ccc3snc(COC(=O)c4ccco4)c3c2)c1=O result=5.0
compound="COC(=O)C(C)Oc1cc(C)c(I)cc1-c1nsc2ccc(-n3c(=O)cc(C(F)(F)F)n(C)c3=O)cc12 (stereo not shown)" result=0.0
compound=Cn1c(C(F)(F)F)cc(=O)n(-c2ccc3snc(COC(=O)c4ccc(Cl)nc4)c3c2)c1=O result=0.0
compound=Cn1c(C(F)(F)F)cc(=O)n(-c2ccc3snc(COC(=O)c4ccncc4)c3c2)c1=O result=5.0

====

Quick list: ECHORC herbicidal effect rating per entry.
System: Echinochloa oryzoides (Ard.) Fritsch.
Test: Preemergence weed control under flooded paddy conditions, ECHORC (Watergrass (Calif.))
Assay type: in vivo
Conditions: Rate 0.1250 kg/ha; preemergence, flooded paddy; rated three to four weeks after treatment
property: ECHORC herbicidal effect rating

compound="CNC.Cn1c(C(F)(F)F)cc(=O)n(-c2ccc3snc(COCC(=O)O)c3c2)c1=O [Example 296]" property="ECHORC herbicidal effect rating" result=2.0
compound="CC(=O)/C=C/c1nsc2ccc(-n3c(=O)cc(C(F)(F)F)n(C)c3=O)cc12 [Example 285]" property="ECHORC herbicidal effect rating" result=7.0
compound="Cn1c(C(F)(F)F)cc(=O)n(-c2ccc3snc(COC(CF)CF)c3c2)c1=O [Example 207]" property="ECHORC herbicidal effect rating" result=2.0
compound="Cn1c(C(F)(F)F)cc(=O)n(-c2ccc3snc(COC4C=CCCC4)c3c2)c1=O (stereo not shown) [Example 209]" property="ECHORC herbicidal effect rating" result=2.0

====

Tested on: Oryza sativa, (L.) Tebonnet
Test: Rice tolerance to post-transplant applications under flooded paddy conditions (Example 187), ORYSAT (Rice, Tebonnet)
Details: 0.0620 kg/ha, herbicidal effect rating 0-9, three to four weeks after treatment
Quick list: ORYSAT per entry.
property: ORYSAT

compound="COC(=O)CN(C(=O)c1nsc2ccc(-n3c(=O)cc(C(F)(F)F)n(C)c3=O)cc12)S(=O)(=O)Cc1ccccc1 [Example 441]" result=0.0
compound="Cn1c(C(F)(F)F)cc(=O)n(-c2ccc3snc(C(=O)Nc4nc(C(F)(F)F)c(Cl)s4)c3c2)c1=O [Example 439]" result=0.0
compound="Cn1c(C(F)(F)F)cc(=O)n(-c2ccc3snc(C(=O)C(C)(C)C)c3c2)c1=O [Example 432]" result=6.0
compound="Cc1ccsc1C=C(C#N)c1nsc2ccc(-n3c(=O)cc(C(F)(F)F)n(C)c3=O)cc12 [Example 457]" result=0.0
compound="COCCOC(=O)c1nsc2ccc(-n3c(=O)cc(C(F)(F)F)n(C)c3=O)cc12 [Example 411]" result=0.0
compound="C#CCOC(=O)COc1cc2c(cc1-c1nsc3ccc(-n4c(=O)cc(C(F)(F)F)n(C)c4=O)cc13)CCC2 [Example 436]" result=5.0
compound="Cn1c(C(F)(F)F)cc(=O)n(-c2ccc3snc(C(=O)OCCCO)c3c2)c1=O [Example 410]" result=3.0
compound="COc1cc(C(Br)Br)ccc1-c1nsc2ccc(-n3c(=O)cc(C(F)(F)F)n(C)c3=O)cc12 [Example 447]" result=4.0
